system: HIV-1 infection of TZM-bl cells; assay: HIV-1 infectivity enhancement assay, β-galactosidase luminescence; type: cell-based; conditions: Feb2021; n-fold infectivity relative to EF-C
List of Rel-to EFC (Feb-2021) values.
value-type: Rel-to EFC (Feb-2021)

substance="CQFQFQF [QBL4]" value_type="Rel-to EFC (Feb-2021)" measured_number=0.3533
substance="RGEKIKIQINM [CN18]" value_type="Rel-to EFC (Feb-2021)" measured_number=0.2436
substance="KFKFKFQF [TG18]" value_type="Rel-to EFC (Feb-2021)" measured_number=0.7993
substance="KIKIQIW [TM69]" value_type="Rel-to EFC (Feb-2021)" measured_number=0.1402
substance="KIKIQINMWQ [JG1]" value_type="Rel-to EFC (Feb-2021)" measured_number=0.2968
substance="CSISIQINM [TM145]" value_type="Rel-to EFC (Feb-2021)" measured_number=0.1983
substance="CKFKQFFNMWQ [CK13]" value_type="Rel-to EFC (Feb-2021)" measured_number=0.6098
substance="CHLHLQL [CN9]" value_type="Rel-to EFC (Feb-2021)" measured_number=0.09822
substance="HHHHKIKIQINMYYYY [TM16]" value_type="Rel-to EFC (Feb-2021)" measured_number=1.108
substance="KAKAQA [JJA2 / TM153]" value_type="Rel-to EFC (Feb-2021)" measured_number=0.01805
substance="CKIKIQINM [MG2]" value_type="Rel-to EFC (Feb-2021)" measured_number=1.589
substance="KFKFQFFF [TG12]" value_type="Rel-to EFC (Feb-2021)" measured_number=0.404
substance="KFKFQF [JJA6]" value_type="Rel-to EFC (Feb-2021)" measured_number=0.06128
substance="HIHIQIC [CN12]" value_type="Rel-to EFC (Feb-2021)" measured_number=0.2709
substance="QCKFKFQFNMWQ [CK7]" value_type="Rel-to EFC (Feb-2021)" measured_number=0.6186
substance="KIKQII [msis21]" value_type="Rel-to EFC (Feb-2021)" measured_number=0.004924
substance="HHHHKIKIKIKIWWWW [TM4]" value_type="Rel-to EFC (Feb-2021)" measured_number=0.3788
substance="CKIKQII [MG4a]" value_type="Rel-to EFC (Feb-2021)" measured_number=0.04182
substance="CKFKFQF [BL4]" value_type="Rel-to EFC (Feb-2021)" measured_number=1.233
substance="CEIEIQI [AR2/ TM142]" value_type="Rel-to EFC (Feb-2021)" measured_number=0.02791
substance="QCKFKQFFNM [CK11]" value_type="Rel-to EFC (Feb-2021)" measured_number=0.426
substance="MKFKFQF [DF5 / CK16]" value_type="Rel-to EFC (Feb-2021)" measured_number=0.06366
substance="KIKIQII [TG1 / (KM4)]" value_type="Rel-to EFC (Feb-2021)" measured_number=0.01867
substance="KFKQFFNMWQ [JG5]" value_type="Rel-to EFC (Feb-2021)" measured_number=0.08925
substance="KLKQLL [KM27 / psis14]" value_type="Rel-to EFC (Feb-2021)" measured_number=0.00739
substance="CKAKAQANMWQ [BL8]" value_type="Rel-to EFC (Feb-2021)" measured_number=0.04371
substance="KFKFQFF [TG6]" value_type="Rel-to EFC (Feb-2021)" measured_number=0.1218
substance="KIKQIINMWQ [JG2]" value_type="Rel-to EFC (Feb-2021)" measured_number=0.3464
substance="CRFRFQF [CN10]" value_type="Rel-to EFC (Feb-2021)" measured_number=0.3439
substance="CKAKAQA [TM155]" value_type="Rel-to EFC (Feb-2021)" measured_number=0.03153
substance="KLKLKLQL [TG16]" value_type="Rel-to EFC (Feb-2021)" measured_number=0.09784
